Tested on: Abp1 PPIs
Test: DHFR-PCA of Abp1 SH3-swapped baits (Fig. 2B-D, S2C, S2F);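 also: Euclidean distance between DHFR-PCA score profiles of the baits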
Assay type: cell-based, Saccharomyces cerevisiae
Settings: distance to Abp1 bait with BEM1-2 SH3; sheet Fig2C
parameter: Protein-protein interaction distance between Abp1 SH3-swapped baits, to BEM1-2

Which Protein-protein interaction distance between Abp1 SH3-swapped baits, to BEM1-2 is reported for this molecule? PIN3 (protein, UniProt Q06449 2-215, looked up) [PSI+] inducibility protein 3: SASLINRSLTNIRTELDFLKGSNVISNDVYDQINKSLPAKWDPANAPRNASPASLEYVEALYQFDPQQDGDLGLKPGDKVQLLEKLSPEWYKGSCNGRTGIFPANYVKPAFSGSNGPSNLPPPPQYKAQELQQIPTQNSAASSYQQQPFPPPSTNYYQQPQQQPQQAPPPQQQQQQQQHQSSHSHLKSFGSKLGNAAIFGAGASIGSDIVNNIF
33.69
